molecular target: OCT1 Phe244Ala variant (Homo sapiens, UniProt O15245, F244A); test: Uptake screening (transport ratio over empty vector), HEK293 cells overexpressing OCT1 Phe244Ala variant; format: cell-based; parameters: expressed in transfected cells; conditions: uptake ratio over empty vector, HEK293 cells overexpressing OCT1 Phe244Ala
The molecules listed here are annotated with their Mean_transport_ratio_Phe244Ala.

{"Molecule": "NC(N)=NC(N)=Nc1ccc(Cl)cc1", "Mean_transport_ratio_Phe244Ala": 13.901}
{"Molecule": "Cc1cc(C(C)(C)C)cc(C)c1CC1=NCCN1", "Mean_transport_ratio_Phe244Ala": 4.046}
{"Molecule": "CN=C(NC#N)NCCSCc1nc[nH]c1C", "Mean_transport_ratio_Phe244Ala": 2.588}
{"Molecule": "CC(C)(C)NCC(O)c1ccc(O)c(CO)n1 (stereo not shown)", "Mean_transport_ratio_Phe244Ala": 54.212}

---

target: OCT1 Phe244Ala variant (Homo sapiens, UniProt O15245, F244A); assay: Uptake screening (transport ratio over empty vector), HEK293 cells overexpressing OCT1 Phe244Ala variant; type: cell-based; design: expressed in transfected cells; conditions: Phe244Ala uptake relative to OCT1 WT
Record TRUE whenever relative_Phe244Ala_uptake_in% is at 50% or higher; record FALSE when lower.

{"Compound": "CN1[C@@H]2CC[C@H]1C[C@@H](OC(=O)c1c[nH]c3ccccc13)C2", "Target or test system": "OCT1 Phe244Ala variant (Homo sapiens, UniProt O15245, F244A)", "Class name": "FALSE"}
{"Compound": "COCCn1c2c([n+](Cc3cnccn3)c1C)C(=O)c1ccccc1C2=O", "Target or test system": "OCT1 Phe244Ala variant (Homo sapiens, UniProt O15245, F244A)", "Class name": "TRUE"}
{"Compound": "COc1cc2c(cc1OC)-c1cc3ccc(OC)c(OC)c3c[n+]1CC2", "Target or test system": "OCT1 Phe244Ala variant (Homo sapiens, UniProt O15245, F244A)", "Class name": "TRUE"}
{"Compound": "CNCC(O)c1ccc(O)cc1 (centres unmarked) [Synephrine]", "Target or test system": "OCT1 Phe244Ala variant (Homo sapiens, UniProt O15245, F244A)", "Class name": "FALSE"}
{"Compound": "CC(C)NC[C@H](O)COc1ccc(O)cc1", "Target or test system": "OCT1 Phe244Ala variant (Homo sapiens, UniProt O15245, F244A)", "Class name": "TRUE"}
{"Compound": "CCN(CC)CCNC(=O)c1ccc(NS(C)(=O)=O)cc1", "Target or test system": "OCT1 Phe244Ala variant (Homo sapiens, UniProt O15245, F244A)", "Class name": "TRUE"}
{"Compound": "NCCc1c[nH]c2ccccc12", "Target or test system": "OCT1 Phe244Ala variant (Homo sapiens, UniProt O15245, F244A)", "Class name": "FALSE"}
{"Compound": "CN(C)CCc1ccc(O)cc1", "Target or test system": "OCT1 Phe244Ala variant (Homo sapiens, UniProt O15245, F244A)", "Class name": "FALSE"}
{"Compound": "Cc1cc(O)cc(C)c1OCC(C)N (centres unmarked) [4-Hydroxy mexiletine]", "Target or test system": "OCT1 Phe244Ala variant (Homo sapiens, UniProt O15245, F244A)", "Class name": "FALSE"}
{"Compound": "CC(C)[N+](C)(CCOC(=O)C1c2ccccc2Oc2ccccc21)C(C)C", "Target or test system": "OCT1 Phe244Ala variant (Homo sapiens, UniProt O15245, F244A)", "Class name": "TRUE"}
{"Compound": "CCC(NC(C)C)C(O)c1ccc(O)c(O)c1 (centres unmarked)", "Target or test system": "OCT1 Phe244Ala variant (Homo sapiens, UniProt O15245, F244A)", "Class name": "TRUE"}

---

target: OCT1 Phe244Ala variant (Homo sapiens, UniProt O15245, F244A); assay: Uptake screening (transport ratio over empty vector), HEK293 cells overexpressing OCT1 Phe244Ala variant; assay type: cell-based; design: expressed in transfected cells; conditions: Phe244Ala uptake relative to WT;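 further: stably transfected HEK293 cells, intracellular substrate quantified by HPLC-tandem mass spectrometry in cell lysates, uptake in HBSS+ buffer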

{"Compound": "CN(C)CCc1c[nH]c2ccc(CS(=O)(=O)N3CCCC3)cc12", "relative_Phe244Ala_uptake_in% / %": 113.777}
{"Compound": "CC(C)(C)NCC(O)c1ccc(O)c(O)c1 (stereo not shown)", "relative_Phe244Ala_uptake_in% / %": 33.880}
{"Compound": "CC(C)N(CCC(C(N)=O)(c1ccccc1)c1ccccn1)C(C)C (stereo not shown) [Disopyramide]", "relative_Phe244Ala_uptake_in% / %": 27.882}
{"Compound": "CCCC[N+]1(C)[C@@H]2C[C@@H](OC(=O)[C@H](CO)c3ccccc3)C[C@H]1[C@@H]1O[C@@H]12 (stereo partly shown)", "relative_Phe244Ala_uptake_in% / %": 125.561}
{"Compound": "O=C(OC1C[N+]2(CCCOc3ccccc3)CCC1CC2)C(O)(c1cccs1)c1cccs1 [(S)-Aclidinium]", "relative_Phe244Ala_uptake_in% / %": 205.468}
{"Compound": "CC[N+](CC)(CC)Cc1ccccc1", "relative_Phe244Ala_uptake_in% / %": 82.289}
{"Compound": "CC1(C)N=C(N)N=C(N)N1c1ccc(Cl)cc1", "relative_Phe244Ala_uptake_in% / %": 95.814}
{"Compound": "CN(C)CC(c1ccc(O)cc1)C1(O)CCCCC1 (stereo not shown)", "relative_Phe244Ala_uptake_in% / %": 159.771}
{"Compound": "c1cnn(C2CCNCC2)c1", "relative_Phe244Ala_uptake_in% / %": 3.421}
{"Compound": "c1c2c(cc3c1OCO3)-c1cc3ccc4c(c3c[n+]1CC2)OCO4", "relative_Phe244Ala_uptake_in% / %": 90.627}
{"Compound": "COc1ccc2cc3[n+](cc2c1OC)CCc1cc2c(cc1-3)OCO2", "relative_Phe244Ala_uptake_in% / %": 63.219}
{"Compound": "NCC(O)c1ccccc1 (stereo not shown)", "relative_Phe244Ala_uptake_in% / %": 116.872}
{"Compound": "CC[N+](C)(C)c1cccc(O)c1", "relative_Phe244Ala_uptake_in% / %": 101.017}
{"Compound": "CN=C(NC#N)NCCSCc1nc[nH]c1C", "relative_Phe244Ala_uptake_in% / %": 103.374}
{"Compound": "C[N+]12CCC(CC1)C(OC(=O)C(O)(c1ccccc1)c1ccccc1)C2 (stereo not shown)", "relative_Phe244Ala_uptake_in% / %": 112.238}
{"Compound": "COc1cc2c(cc1OC)-c1cc3ccc4c(c3c[n+]1CC2)OCO4 [Epiberberine]", "relative_Phe244Ala_uptake_in% / %": 84.587}
{"Compound": "COc1cc2c(cc1OC)-c1c(C)c3ccc(OC)c(OC)c3c[n+]1CC2 [Dehydrocorydaline]", "relative_Phe244Ala_uptake_in% / %": 100.287}
{"Compound": "O=C(O[C@H]1C[N+]2(CCCOc3ccccc3)CCC1CC2)C(O)(c1cccs1)c1cccs1 [(R)-Aclidinium]", "relative_Phe244Ala_uptake_in% / %": 126.640}
{"Compound": "CCC1(C2=NCCN2)Cc2ccccc2O1 (stereo not shown)", "relative_Phe244Ala_uptake_in% / %": 45.757}

---

The molecules listed here are annotated with their Mean_transport_ratio_WT.
Target: OCT1 WT (Homo sapiens, UniProt O15245)
Sequence (O15245 1-554): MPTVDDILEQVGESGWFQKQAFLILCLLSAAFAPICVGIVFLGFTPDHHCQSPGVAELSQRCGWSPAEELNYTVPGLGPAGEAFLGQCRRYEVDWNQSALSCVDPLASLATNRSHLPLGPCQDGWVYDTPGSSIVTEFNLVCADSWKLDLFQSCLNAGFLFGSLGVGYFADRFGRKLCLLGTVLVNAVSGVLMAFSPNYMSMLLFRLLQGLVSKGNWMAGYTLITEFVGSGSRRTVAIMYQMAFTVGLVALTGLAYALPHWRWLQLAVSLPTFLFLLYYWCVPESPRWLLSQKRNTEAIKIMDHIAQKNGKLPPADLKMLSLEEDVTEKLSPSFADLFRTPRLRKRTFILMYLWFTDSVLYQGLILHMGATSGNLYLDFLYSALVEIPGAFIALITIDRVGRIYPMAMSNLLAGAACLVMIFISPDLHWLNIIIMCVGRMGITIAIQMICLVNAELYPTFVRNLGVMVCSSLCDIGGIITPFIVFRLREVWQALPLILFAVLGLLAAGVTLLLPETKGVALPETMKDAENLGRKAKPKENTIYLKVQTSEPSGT
Experiment: Uptake screening (transport ratio over empty vector), HEK293 cells overexpressing OCT1 WT;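 further: intracellular substrate levels quantified by HPLC–tandem mass spectrometry after uptake in HBSS+ buffer at 37 °C, stable Flp-In HEK293 lines, fold change versus empty vector–transfected cells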
Type: cell-based
Design: expressed in transfected cells
Settings: uptake ratio over empty vector, HEK293 cells overexpressing OCT1 WT

{"Molecule": "CCN(CC)CCNC(=O)c1ccc(NS(C)(=O)=O)cc1 [Sematilid]", "Mean_transport_ratio_WT": 3.577}
{"Molecule": "CC(C)NCC(O)c1ccc(NS(C)(=O)=O)cc1 (stereo not shown) [Sotalol]", "Mean_transport_ratio_WT": 5.197}
{"Molecule": "CN(C)CC(c1ccc(O)cc1)C1(O)CCCCC1 (stereo not shown) [O-Desmethylvenlafaxine]", "Mean_transport_ratio_WT": 2.309}
{"Molecule": "NCCc1cccc(O)c1 [m-Tyramine]", "Mean_transport_ratio_WT": 6.001}
{"Molecule": "CNCc1ccc(CSCCNC(=C[N+](=O)[O-])NC)o1 [N-Desmethyl ranitidine]", "Mean_transport_ratio_WT": 35.663}
{"Molecule": "Nc1ccncc1N [Amifampridine]", "Mean_transport_ratio_WT": 4.689}
{"Molecule": "CNS(=O)(=O)Cc1ccc2[nH]cc(CCN(C)C)c2c1 [Sumatriptan]", "Mean_transport_ratio_WT": 32.304}
{"Molecule": "c1c2c(cc3c1OCO3)-c1cc3ccc4c(c3c[n+]1CC2)OCO4 [Coptisine]", "Mean_transport_ratio_WT": 12.003}
{"Molecule": "COCCn1c2c([n+](Cc3cnccn3)c1C)C(=O)c1ccccc1C2=O [YM155]", "Mean_transport_ratio_WT": 18.329}
{"Molecule": "[H]/N=C(/N)N/C(=N/[H])NCCc1ccccc1 [Phenformin]", "Mean_transport_ratio_WT": 29.083}
